Target: T1, human NMI (N-myc Interacting protein), recombinant protein (human, UniProt Q13287 1-307, limits assumed)
T1 construct: Gene ID: 9111; also called hNMI; antigen
T1 sequence (looked up): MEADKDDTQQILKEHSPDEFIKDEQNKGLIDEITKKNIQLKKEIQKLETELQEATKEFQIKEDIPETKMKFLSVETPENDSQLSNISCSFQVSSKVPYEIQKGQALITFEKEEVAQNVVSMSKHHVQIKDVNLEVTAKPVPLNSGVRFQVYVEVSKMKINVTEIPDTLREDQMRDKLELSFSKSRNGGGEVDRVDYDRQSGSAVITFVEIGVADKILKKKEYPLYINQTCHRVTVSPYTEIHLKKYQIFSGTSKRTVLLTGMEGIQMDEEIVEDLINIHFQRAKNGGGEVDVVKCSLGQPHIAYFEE
Assay: sandwich ELISA; detection 94C4-1-biotin 1µg/mL; hNMI 390.625 pg/mL

Binder	OD450 / OD450
monoclonal antibody 98G10 (antibody, V domains shown, Rabbit monoclonal antibody) VH: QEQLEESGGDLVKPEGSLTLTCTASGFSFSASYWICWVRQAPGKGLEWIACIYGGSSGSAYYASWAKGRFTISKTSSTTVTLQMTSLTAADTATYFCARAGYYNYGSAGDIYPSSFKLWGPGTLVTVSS VL: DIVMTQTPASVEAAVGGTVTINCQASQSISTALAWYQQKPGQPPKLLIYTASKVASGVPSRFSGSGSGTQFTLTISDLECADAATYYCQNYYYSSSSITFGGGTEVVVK	0.233
